Sourced from PubChem BioAssay (NCI)

Tested on: OVCAR-8 ovarian
Assay name: NCI-60 one-dose screen, 48 h
Experimental context: 10 µM unless noted
The panel holds about 83,000 compounds, 20% with a hit somewhere; the sample as a whole holds those more often. Activity calls are given as the source filed them. The calls were made as follows: active = growth percent below 10; inactive = the rest.
Entry note: the call must match one of active, inactive

Previously resolved entries follow.
CCCCCCN(CCCCCC)C(=N)c1ccnc2ccccc12 inactive
CCCSc1ccc2nc(NC(=O)OC)[nH]c2c1 inactive
CCN(CC)CCCCNc1c2ccc(Cl)cc2nc2ccc(OC)cc12 active

Ask | Query: recorded result category for COc1cc2c(cc1-c1c(C)noc1C)ncc1nc(C3CCOCC3)n([C@H](C)COC(F)F)c12 in this test
Reply | inactive

Ask | # fetch the recorded call for O=C(/C=C/c1cccc([N+](=O)[O-])c1)c1ccc(O)c(CN2CCN(c3cc4c(cc3F)c(=O)c(C(=O)O)cn4C3CC3)CC2)c1 here
Reply | inactive

###

Test system: NCI-H522 lung
Assay name: NCI-60 one-dose screen, 48 h
Experimental context: 10 µM unless noted
About 83,000 compounds went through this panel and 20% of them were active in at least one assay; those are over-represented in the sample as a whole. Active and inactive are the calls of the source. How the source made its calls: active means growth percent below 10; inactive means the rest.
Use one of these outcomes when replying: active, inactive

Study these solved cases before continuing.
Molecule	Class name
O=C1/C(=C/c2ccc3c(c2)OCO3)SC(=S)N1CCc1ccc(O)cc1	inactive
COc1ccc2c(c1)C(=O)/C(=C/c1cccnc1)CC2	inactive
Cc1cc(N[C@@H]2CCC[C@H](Nc3ccnc4cc(Cl)ccc34)C2)nc(N2CCCCCC2)n1	active
CC1=C[C@H]2c3c(c(O)c(O)c4oc5cc(O)ccc5c(=O)c34)[C@H](c3cc(O)c(O)c4oc5cc(O)ccc5c(=O)c34)[C@H]2C(C)(C)C1	inactive
COc1cc(/C=C/c2cc(/C=C/c3ccc(O)c(OC)c3)n(-c3c(Cl)cccc3Cl)c(=O)n2)ccc1O	active
O=C1CC[C@H](c2ccc(O)c3c2C(=O)[C@@H]2O[C@@H]2C3=O)c2cccc(O)c21	active
C=C1C(=O)O[C@H]2[C@H]1CC/C(COC(=O)c1cc3cc(OC)ccc3[nH]1)=C\CC[C@@]1(C)O[C@@H]21	active
Cc1cc2c3ccccc3ccc2[n+]2ccccc12	active
Cc1ccc2c(C(C[N+](=O)[O-])c3ccccc3F)c(-c3ccccc3)[nH]c2c1 (configuration not stated)	active
C=CC(=O)Nc1cccc(-c2nc(SC)nc(NCCc3ccc(OC)c(OC)c3)c2C#N)c1	inactive

Ask | Dear colleague, could you share the recorded outcome for CSc1nc(-c2cccc(NC(=O)CCl)c2)c(C#N)c(=O)n1C when you have a moment?
Reply | active

Ask | Entry NC(=O)c1cc(I)ccc1NC(=O)/C=C/c1ccccc1Cl : call = ?
Reply | active

Ask | Record request — test call for CC(=O)O[C@H]1CC[C@]2(C)[C@H]3CC=C4[C@@H]5CC(C)(C)CC[C@]5(C(=O)NCCNCCNCCN)CC[C@@]4(C)[C@]3(C)CC[C@H]2C1(C)C
Reply | inactive

###

Measured growth values are reported for all entries that follow.
Tested on: MALME-3M melanoma
Assay name: NCI-60 one-dose screen, 48 h (100 = growth as untreated, 0 = no growth, -100 = all killed)
Experimental context: 10 µM unless noted
About 83,000 compounds went through this panel and 20% of them were active in at least one assay; those are over-represented in the sample as a whole.
The response must be a number in % with no trailing unit.

Compound	Readout	Measure unit	Val
CCC([N+](=O)[O-])S(=O)(=O)c1ccc(C)cc1 (stereo unspecified)	growth	%	143
CC(C)(C)N1CCC1CN (stereo unspecified)	growth	%	147
CC[C@H]1OC(=O)[C@H](C)[C@@H](O[C@H]2C[C@@](C)(OC)[C@@H](O)[C@H](C)O2)[C@H](C)[C@@H](O[C@@H]2O[C@H](C)C[C@H](N(C)C)[C@H]2O)[C@](C)(O)C[C@H](C)CN(C)[C@H](C)[C@@H](O)[C@]1(C)O	growth	%	92

Ask | Given COc1ccc(C(=O)COc2ccc(/C=C3\COc4ccc(OC)cc4C3=O)cc2)cc1 , report its growth on MALME-3M melanoma.
Reply | 90.2

Ask | For MALME-3M melanoma, give the measured growth of the entry C(=C\c1nccc2c1[nH]c1ccccc12)/c1ccccc1
Reply | 29.4

Ask | GET growth | system: MALME-3M melanoma | item: COc1cc2c(cc1-c1c(C)noc1C)ncc1nc(C3CCCC3)n([C@H](C)COC(F)F)c12
Reply | 71.1

###

Tested on: SR leukemia
Assay name: NCI-60 one-dose screen, 48 h (100 = growth as untreated, 0 = no growth, -100 = all killed)
Experimental context: 10 µM unless noted
Compounds without any hit were thinned out: in the full panel of roughly 83,000, 20% have a hit.
growth of 10% or higher: y. Under 10%: n.

Compound	Class name
Brc1ccc(-c2csc(Nc3ccccn3)n2)cc1	y
COc1cccc(/C=C2\SC(=Nc3ccc(NC(C)=O)cc3)NC2=O)c1OC	y
CCc1nc(N)nc(N)c1C#CC(C)c1cc(-c2ccnc(C)c2)c2oc(C)nc2c1 (centres undefined)	n
CC1=C[C@H]2c3c(c(O)c(O)c4oc5c(C)cccc5c(=O)c34)[C@H](c3cc(O)c(O)c4oc5c(C)cccc5c(=O)c34)[C@H]2C(C)(C)C1	n
COc1ccc(Nc2cc(C)nc(N3CCN(c4ccnc5cc(Cl)ccc45)CC3)n2)cc1	n
Cc1ccc(/C=C2\SC(=S)N(CC(=O)NCCCN3CCOCC3)C2=O)cc1	y

Ask | Answer whether growth of O=c1c(F)cn(Cc2ccccc2CCl)c(=O)n1Cc1ccccc1CCl is greater than or equal to 10%.
Reply | n

Ask | Please check the record Cc1ccc(NC(=O)/C=C/c2ccccc2)c(C(N)=O)c1 and state if its growth is at or above 10%.
Reply | n

Ask | Kindly determine if growth recorded for CC/C=C\C[C@H](O)C/C=C1/C(=O)C=C[C@@]1(C)C/C=C\CCCC(=O)OC is above or exactly 10%.
Reply | y

###

System: PC-3 prostate
Assay name: NCI-60 one-dose screen, 48 h
Experimental context: 10 µM unless noted
Protocol: Growth inhibition of the PC-3 human tumor cell line is measured as a screen for anti-cancer activity. Cells are grown in 96 well plates and exposed to the test compound for 48 hours. Compounds are tested at a single concentration, which is 10^-5 M for most compounds. The reported endpoint is percent growth (GI% or GIPRCNT), where numbers from 0 - 100% represent growth inhibition, and numbers from -100% - 0 represent cell death. For example, a value of 40 represents 60% growth inhibition. […]
The panel holds about 83,000 compounds, 20% with a hit somewhere; the sample as a whole holds those more often. Active and inactive are the calls of the source. The calls were made as follows: active = growth percent below 10; inactive = the rest.
// allowed return values: class 1 = active, class 0 = inactive

Worked set:
Molecule	Class name
COc1ccc2cc(-c3nn(-c4ccc(C(=O)O)cc4)cc3CO)ccc2c1	class 0
C=C(C)[C@@H]1CC[C@]2(C(=O)OC)CC[C@]3(C)[C@H](CC[C@@H]4[C@@]5(C)C/C(=C/c6cccc(I)c6)C(=O)C(C)(C)[C@@H]5CC[C@]43C)[C@@H]12	class 0
O=C1Nc2c(ccc(Cl)c2Cl)/C1=C\c1ccc(C(F)(F)F)cc1	class 0
CCC(=O)c1ccc(Cl)s1	class 0
Cc1ccc(-c2onc3c(=O)[nH]nc(-c4ccccc4)c23)cc1	class 0

Ask | Per the records of this test, what outcome belongs to O=C(/C=C/C=C/c1ccc2c(c1)OCO2)N/N=C\c1ccc(O)cc1O ?
Reply | class 0

Ask | What was the test verdict on CN(C)c1ccc(N=Nc2ccc(Br)cn2)c(O)c1 ?
Reply | class 0

Ask | Entry C=CC(=O)Nc1cccc(-c2nc(SC)nc(Nc3cccc(OC)c3)c2C#N)c1 : call = ?
Reply | class 0

Ask | What was the test verdict on CC1=C[C@H]2c3c(c(O)c(O)c4oc(-c5ccccc5)cc(=O)c34)[C@H](c3cc(O)c(O)c4oc(-c5ccccc5)cc(=O)c34)[C@H]2C(C)(C)C1 ?
Reply | class 1

Ask | Which outcome was entered for the molecule O=C(Cn1cccc(Nc2ccccc2)c1=O)Nc1ccccc1 in this test?
Reply | class 0

Ask | What outcome does the record of this test show for CCc1nnc(CNc2ccc(Cl)cc2)o1 ?
Reply | class 0

Ask | For this molecule, state the assay outcome: CCN1CCC2(CC1)NC(=O)c1c(c3ccc(Cl)c(Cl)c3n1C)C2C#N (centres undefined)
Reply | class 0

Ask | Any idea what this test logged for COc1cc(-c2nn(-c3ccc(C)cc3)cc2C(=O)O)ccc1O ?
Reply | class 0

Ask | What call does the record list for COc1cc(/C=C/C(=O)c2ccc(O)c(CN3CCN(c4cc5c(cc4F)c(=O)c(C(=O)O)cn5C4CC4)CC3)c2)cc(OC)c1OC ?
Reply | class 0

Ask | Lab log entry: CC1=CC(=NN=c2cc(C)n([O-])c(C)c2)C=C(C)[N+]1=O — outcome as called in the assay?
Reply | class 0

Ask | Write down the call the test reported for this molecule. Item: O=CNc1ccc2c(c1)Cc1cccc(NC=O)c1-2
Reply | class 0

Ask | Test call for this molecule, please: COc1ccc2c(c1)C(=O)/C(=C/c1cccnc1)CC2
Reply | class 0

Ask | Field: outcome | Entry: CN1CCN(CCCOc2cccc3nc(Nc4cc(Cl)cc(Cl)c4)ccc23)CC1
Reply | class 1
